Test system: E. multilocularis metacestode vesicles
experimentDescription: Metacestode vesicle viability assay (ATP, CellTiter-Glo)
Format: cell-based, Echinococcus multilocularis
experimentalConditions: overview screen, 10 μM, singlets, 12 days, relative to DMSO control
endpoint: Viability d12 (relative viability) (%)
One number for each entry, in %.

Reference set (5 entries):
molecule: Cl.NC1(C(=O)O)CCP(=O)(O)CC1 (stereo not drawn)
studySystem: E. multilocularis metacestode vesicles
endpointValue: 39.7446

molecule: NNC(=O)c1ccncc1
studySystem: E. multilocularis metacestode vesicles
endpointValue: 113.159

molecule: Cc1nc(Nc2ccc(F)cc2)nc(N2CCc3ccccc3C2C)c1C (stereo not drawn)
studySystem: E. multilocularis metacestode vesicles
endpointValue: 56.6945

molecule: Fc1ccc2c(/C=C/c3cccnc3)c[nH]c2c1
studySystem: E. multilocularis metacestode vesicles
endpointValue: 96.8566

molecule: CCc1cc(O)c(Oc2cccnc2N)cc1F
studySystem: E. multilocularis metacestode vesicles
endpointValue: 45.6729

Query string: I have this molecule here, OB1OCc2c1ccc(Cl)c2F , and I need its recorded Viability d12 (relative viability).
Result string: 39.4941

----------
Test system: E. multilocularis metacestode vesicles
experimentDescription: Metacestode vesicle viability assay (ATP, CellTiter-Glo)
Format: cell-based, Echinococcus multilocularis
experimentalConditions: overview screen, 10 μM, singlets, 12 days, relative to DMSO control
I'd be grateful if you could share measured Viability d12 (relative viability) for these entries.
One number for each entry, in %.

Reference set (5 entries):
molecule: Cc1c[nH]c(=O)nc1NCc1ccccc1
studySystem: E. multilocularis metacestode vesicles
endpoint: Viability d12 (relative viability)
endpointValue: 140.789

molecule: CC(C)(C)c1ccc(C(=O)NC(=O)N2CCCc3ccccc32)cc1
studySystem: E. multilocularis metacestode vesicles
endpoint: Viability d12 (relative viability)
endpointValue: 85.4175

molecule: CC(=O)N1CCN(c2ccc(OC[C@@H]3CO[C@@](Cn4ccnc4)(c4ccc(Cl)cc4Cl)O3)cc2)CC1
studySystem: E. multilocularis metacestode vesicles
endpoint: Viability d12 (relative viability)
endpointValue: 224.858

molecule: Nc1nc2c(ncn2[C@@H]2O[C@H](CO)[C@@H](O)[C@H]2F)c(=O)[nH]1
studySystem: E. multilocularis metacestode vesicles
endpoint: Viability d12 (relative viability)
endpointValue: 216.057

molecule: CC(C)CCN1C(=O)C(C2=NS(=O)(=O)c3cc(NS(C)(=O)=O)ccc3N2)=C(O)[C@@H]2[C@H]3CC[C@H](C3)[C@@H]21
studySystem: E. multilocularis metacestode vesicles
endpoint: Viability d12 (relative viability)
endpointValue: 132.239

// input: 2 molecules below; output: Viability d12 (relative viability) for each
1. O=C(N[C@H](Cc1cccc2ccccc12)C(=O)NCCc1c[nH]cn1)C1Cc2ccccc2C1
2. NC(=O)c1ccc(I)c([N+](=O)[O-])c1

Result string:
29.391
321.911

Query string: I have this molecule here, O=c1ccc2ncc(=O)n3c2n1CC3CN1CCC(NCc2cc3c(cn2)OCCC3)CC1 (centres unmarked) , and I need its recorded Viability d12 (relative viability).
Result string: 53.1876

----------
System: E. multilocularis metacestode vesicles
experimentDescription: Metacestode vesicle viability assay (ATP, CellTiter-Glo)
Type: cell-based, Echinococcus multilocularis
experimentalConditions: overview screen, 10 μM, singlets, 12 days, relative to DMSO control
endpoint: Viability d12 (relative viability) (%)
Numbers only, in %.

Reference set (6 entries):
smilesString: N[C@H](CCC(=O)N[C@@H](Cc1c[nH]c2ccccc12)C(=O)O)C(=O)O
studySystem: E. multilocularis metacestode vesicles
Viability d12 (relative viability) [%]: 121.646

smilesString: OCCCCn1cnc2c(O)nc(NCc3ccc(Cl)c(Cl)c3)nc21
studySystem: E. multilocularis metacestode vesicles
Viability d12 (relative viability) [%]: 68.6346

smilesString: O=C(O)COc1cccc2c1CC[C@](O)(COC(=O)N(c1ccccc1)c1ccccc1)C2
studySystem: E. multilocularis metacestode vesicles
Viability d12 (relative viability) [%]: 68.1339

smilesString: NC(=O)c1cnccn1
studySystem: E. multilocularis metacestode vesicles
Viability d12 (relative viability) [%]: 123.464

smilesString: CCCCc1ccc(C(=O)O)nc1
studySystem: E. multilocularis metacestode vesicles
Viability d12 (relative viability) [%]: 162.188

smilesString: Cc1ccc(C)c(OCCCCCCN2C[C@H](O)[C@@H](O)[C@H](O)[C@H]2CO)c1
studySystem: E. multilocularis metacestode vesicles
Viability d12 (relative viability) [%]: 26.5643

// input: 4 compounds below; output: Viability d12 (relative viability) for each
1. COCCn1cnc2c(O)nc(Nc3ccccc3)nc21
2. O=[N+]([O-])/C(Br)=C/c1ccc(Br)o1
3. CN(C)c1[nH]c(=O)ncc1F
4. O=c1cc(NCCCN[C@@H]2CCOc3c(Br)cc(Br)cc32)[nH]c2ccsc12

Result string:
1: 66.6969; 2: 16.4489; 3: 98.8605; 4: 55.812

----------
System: E. multilocularis metacestode vesicles
experimentDescription: Phosphoglucose isomerase (PGI) release assay (damage-marker release) on metacestode vesicles
Type: cell-based, Echinococcus multilocularis
experimentalConditions: overview screen, 10 μM, singlets, 12 days, relative to 0.1 % Triton X-100, DMSO subtracted
I'd be grateful if you could share measured PGI d12 (relative PGI release) for these entries.
Answers are plain numbers, in %.

compound: Nc1ccc(-c2nc3cc(C(F)(F)F)ccc3n2C23CC4CC(CC(C4)C2)C3)cc1
endpoint: PGI d12 (relative PGI release)
endpointValue: 1.206
//
compound: OC(Cn1cncn1)(Cn1cncn1)c1ccc(F)cc1F
endpoint: PGI d12 (relative PGI release)
endpointValue: -24.335

// input: 8 compounds below; output: PGI d12 (relative PGI release) for each
1. CCCCc1ccc(-c2nc(C)c(C(=O)OC)s2)cc1
2. O=S(=O)(Nc1ccc(O)cc1)c1cccc2cccnc12
3. Fc1ccc2c(/C=C/c3cccnc3)c[nH]c2c1
4. CC(=O)N1c2ccccc2NC2=C(C(=O)CC(C)(C)C2)C1c1ccc(OCc2ccccc2)cc1 (stereo not drawn)
5. C[C@@H](O)[C@H](N)C(=O)NS(=O)(=O)c1cccc(-c2ccc3[nH]ncc3c2)c1.Cl.Cl
6. [N-]=[N+]=N[C@H]1C[C@H](n2ccc(=O)[nH]c2=O)O[C@@H]1CO
7. O=C(Nc1[nH]c(=O)ncc1F)c1ccccc1
8. CC1(C)C[C@H]1C(=O)N/C(=C\CCCCSC[C@@H](N)C(=O)O)C(=O)O.[Na+]

Result string:
[0.05977, -17.8593, 1.559, -18.9728, -25.2892, -8.089, -21.87, -1.053]

// input: 7 compounds below; output: PGI d12 (relative PGI release) for each
1. Cc1c(CN(C)C(=O)/C=C/c2cnc3c(c2)C(C)(C)C(=O)N3)oc2ccccc12
2. NNC(=O)c1ccncc1
3. CC(C)CCN1C(=O)C(C2=NS(=O)(=O)c3cc(NS(C)(=O)=O)ccc3N2)=C(O)[C@@H]2[C@H]3CC[C@H](C3)[C@@H]21
4. O=C1CCC(N2C(=O)c3ccccc3C2=O)C(=O)N1 (stereo not drawn)
5. Cc1nc(N(C)C(=O)Cc2ccc(-c3ccccn3)cc2)sc1S(N)(=O)=O
6. CC[C@@]1(O)C(=O)OCc2c1cc1n(c2=O)Cc2cc3c([N+](=O)[O-])cccc3nc2-1
7. CC(=O)NC[C@H]1CN(c2ccc(N3CCSCC3)c(F)c2)C(=O)O1

Result string:
63.9713
-1
0.853
-2.884
0.7043
-0.447
-2.526

Query string: I have this compound here, CNC(=O)C1O[C@@H](n2cnc3c(NCc4cccc(I)c4)nc(Cl)nc32)[C@H](O)[C@@H]1O (stereo partly drawn) , and I need its recorded PGI d12 (relative PGI release).
Result string: 0.1534

----------
Test system: E. multilocularis metacestode vesicles
experimentDescription: Phosphoglucose isomerase (PGI) release assay (damage-marker release) on metacestode vesicles
Type: cell-based, Echinococcus multilocularis
experimentalConditions: overview screen, 10 μM, singlets, 5 days, relative to 0.1 % Triton X-100, DMSO subtracted
Experimental: In order to quantify the drug-induced damage on whole metacestode vesicles, phosphoglucose isomerase (PGI) assay was performed as described previously ([Stadelmann et al., 2010]) with few adaptations published recently ([Kaethner et al., 2023]). […] PGI activity in the supernatants was measured on a HIDEX Sense microplate reader (Hidex, Turku, Finland). […] IC50 values were calculated applying the 3 parameter Weibull type 1 in R for each of the three independent experiments ([Ritler et al., 2020]).
endpoint: PGI d5 (relative PGI release)

// input: 2 compounds below; output: PGI d5 (relative PGI release) for each
1. CCOCc1nc2c(N)nc3ccccc3c2n1CC(C)(C)O
2. O=C(NCc1cccc2ccccc12)c1cccs1

Result string:
["0.01909%", "-2.677%"]

// input: 7 compounds below; output: PGI d5 (relative PGI release) for each
1. CCc1nc2ccccn2c1C(=O)NCc1ccccc1
2. Clc1cc(Cl)c2c(c1)CCc1ccccc1C2n1ccnc1 (stereo not shown)
3. Fc1ccc2c(/C=C/c3cccnc3)c[nH]c2c1
4. CN(C)c1[nH]c(=O)ncc1F
5. CCOC(=O)N[C@@H]1CC[C@@H]2[C@@H](C1)C[C@H]1C(=O)O[C@H](C)[C@H]1[C@H]2/C=C/c1ccc(-c2cccc(F)c2)cn1
6. O=c1ccc2ncc(=O)n3c2n1CC3CN1CCC(NCc2cc3c(cn2)OCCC3)CC1 (stereo not shown)
7. COc1ccc2c(c1OC)C(=O)OC2C1c2c(cc3c(c2OC)OCO3)CCN1C (stereo not shown)

Result string:
-2.34%
-1.087%
-2.006%
-2.446%
1.1006%
-2.295%
-0.3679%

Query string: I have this compound here, CCc1nc(N)nc(N)c1C#CC(C)c1cc(OC)cc(-c2ccncc2)c1 (stereo not shown) , and I need its recorded PGI d5 (relative PGI release).
Result string: -2.169%

Taken from paper PMC12410356.
